Exercise: for every item that follows, state its recorded A*0201 (binding information).
molecular target: HLA-A*0201 (Homo sapiens, UniProt P04439, D140Y/D185E/D98H/E176V/E277Q/G131W/G231S/I119V/I121R/I166T/I218V/L300P/L318F/N151K/N90K/P208A/P217A/Q86G/Q94H/R138H/R169H/T345S); assay: purified HLA class I binding assay, A*0201; settings: HIV A02 super motif peptides, Table VIII; unit not given

Measured A*0201 (binding information), NMWQEVGKA : 0.0022

For this sequence ( EVIINVWATIIA ), measured A*0201 (binding information) is 0.0001

sequence KAYDTEVIINV , A*0201 (binding information) observed: 0.0013

For this sequence ( GIRYQYNYL ), measured A*0201 (binding information) is 0.0001

The sequence identified as KIEELRQIIL registered its A*0201 (binding information) at 0.0001

Form field A*0201 (binding information), entry CVKLTPLCVT : 0.0001

response.value for NMVEQMIIEDI (field: A*0201 (binding information)) = 0.0001

Data point: ELQAIIILAL ; A*0201 (binding information) = 0.0001

Form: sequence = IVTDSQYAL ; A*0201 (binding information) = 0.0024

So for DTEYIINVWAT , the logged A*0201 (binding information) turned out to be 0.0001

Please fill in: A*0201 (binding information) reported for MVEQMIIEDII = 0.0001

Summary for this sequence, IILKTAVQMA : A*0201 (binding information) is 0.0033

get_value(item= IILALQDSGL , readout=A*0201 (binding information)) returns 0.0005

A*0201 (binding information) for ILKEPVIIGV is 0.0055
